# Subject of test: T1, recombinant human NGF protein (human, UniProt P01138 122-241)
# T1 construct: Bought protein; also called nerve growth factor; biotin-labeled human NGF
# Procedure details: ELISA, human NGF coated
# Description: The affinity and specificity of humanized antibody were investigated by using human NGF as an antigen (Beijing Yiqiao Shenzhou Technology Co., Ltd., 11050-HNAC). […] 1M HC1 was 40 used to terminate the color development, and the absorbance values were read at 450 nm with a microplate reader.
Reported metric: pEC50
Keep in mind that pEC50 stands for -log10 of concentration in molar terms.

Which measured pEC50 value corresponds to humanized anti-NGF antibody 43E5-05 (antibody, V domains shown, Humanized antibody expressed in CHO cells) VH: QVQLVQSGAEVKKPGSSVKVSCKASGYTFTDYEMHWVRQAPGQGLEWMGAIDPETGGTAYNQKFKGRVTITADKSTSTAYMELSSLRSEDTAVYYCRRGANLNHYGNDEGSYWGQGTLVTVSS VL: DVVMTQSPLSLPVTLGQPASISCKSSQSLLHSVGKTYLNWLQQRPGQSPRRLIYLVSKLDSGVPDRFSGSGSGTDFTLKISRVEAEDVGVYFCWQGTHLPQTFGGGTKVEIK ?
9.67

Which measured pEC50 value corresponds to humanized anti-NGF antibody 138E12-03 (antibody, V domains shown) VH: QVQLQESGPGLVKPSETLSLTCTVSGFSLTGYGVNWIRQPPGKGLEWLGMIWFEGSTDYNSALKSRLTISKDNSKSQVSLKLSSVTAADTAVYYCAREGYYYGTTYYFDYWGQGTTVTVSS VL: DIQMTQSPSSLSASVGDRVTITCRASQDISNYLNWYQQKPGKAPKLLIYYTSRLHSGVPSRFSGSGSGTDYTLTISSLQPEDFATYFCQQGNTLPRTFGGGTKVEIK ?
10.41
